// data source = the supplement of paper PMC7877785

Experiment: self-splicing fitness, log relative to wild type (ln ratio); higher = more splicing; Tetrahymena group I intron in knt gene, E. coli kanamycin selection, DiMSum; sequences stand for … in CUCUCU…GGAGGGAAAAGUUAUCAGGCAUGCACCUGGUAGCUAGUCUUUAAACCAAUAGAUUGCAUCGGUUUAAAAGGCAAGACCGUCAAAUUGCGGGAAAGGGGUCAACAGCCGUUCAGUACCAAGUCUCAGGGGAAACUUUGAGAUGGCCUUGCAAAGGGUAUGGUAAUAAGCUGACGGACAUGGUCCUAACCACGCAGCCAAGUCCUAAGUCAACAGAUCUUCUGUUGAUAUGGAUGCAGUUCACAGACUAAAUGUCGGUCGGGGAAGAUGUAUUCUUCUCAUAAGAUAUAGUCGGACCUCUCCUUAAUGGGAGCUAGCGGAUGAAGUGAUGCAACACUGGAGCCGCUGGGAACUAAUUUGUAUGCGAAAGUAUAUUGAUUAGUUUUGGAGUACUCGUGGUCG;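 also: selection with 25 µg/mL kanamycin versus none on LB agar overnight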
Settings: 30 °C
Where self-splicing fitness (ln) equals or exceeds -2, the correct label is 1; where it does not, the label is -1.

The following sequences have reported results that may help.
# primary-sequence, class-assignment
records = [
    ("CUAGAGCAAUAUUACGCUAA", -1),
    ("CUACAGCAAUAUUACGUUUU", -1),
    ("ACUUAGCAAUAUUACGCUAG", -1),
]

State whether the measured self-splicing fitness (ln) reaches -2, counting equality as reaching it, for "CGACAGCAAUAUUACGUCCC"
1

State whether the measured self-splicing fitness (ln) reaches -2, counting equality as reaching it, for "AACUAGCAAUAUUACGGACG"
1

State whether the measured self-splicing fitness (ln) reaches -2, counting equality as reaching it, for "GCUAAGCAAUAUUACGCAUG"
-1

State whether the measured self-splicing fitness (ln) reaches -2, counting equality as reaching it, for "ACUGAGCAAUAUUACGGUUC"
-1

State whether the measured self-splicing fitness (ln) reaches -2, counting equality as reaching it, for "GAAUAGCAAUAUUACGUGAG"
1

State whether the measured self-splicing fitness (ln) reaches -2, counting equality as reaching it, for "CUCUAGCAAUAUUACGCCUG"
-1

State whether the measured self-splicing fitness (ln) reaches -2, counting equality as reaching it, for "UCGUAGCAAUAUUACGCAUG"
-1

State whether the measured self-splicing fitness (ln) reaches -2, counting equality as reaching it, for "GGCGAGCAAUAUUACGCGAC"
-1

State whether the measured self-splicing fitness (ln) reaches -2, counting equality as reaching it, for "GGUUAGCAAUAUUACGCGUA"
1

State whether the measured self-splicing fitness (ln) reaches -2, counting equality as reaching it, for "AAAAAGCAAUAUUACGAUGC"
1

State whether the measured self-splicing fitness (ln) reaches -2, counting equality as reaching it, for "GCCGAGCAAUAUUACGGGGG"
-1

State whether the measured self-splicing fitness (ln) reaches -2, counting equality as reaching it, for "CAUCAGCAAUAUUACGUACC"
-1

State whether the measured self-splicing fitness (ln) reaches -2, counting equality as reaching it, for "AUCGAGCAAUAUUACGCUUG"
-1

State whether the measured self-splicing fitness (ln) reaches -2, counting equality as reaching it, for "AUGCAGCAAUAUUACGCCUC"
-1

State whether the measured self-splicing fitness (ln) reaches -2, counting equality as reaching it, for "ACAGAGCAAUAUUACGCACC"
-1

State whether the measured self-splicing fitness (ln) reaches -2, counting equality as reaching it, for "AACGAGCAAUAUUACGACAU"
-1

State whether the measured self-splicing fitness (ln) reaches -2, counting equality as reaching it, for "ACGCAGCAAUAUUACGUAAU"
-1
